// reported protein stability index for each item listed
B1: SMTNL2 (parent)
chain: ETAAGKGKGEARARLKRSQSFGVA

# Variants of: B1
# assayDetails: protein stability index of a GFP-peptide fusion (GPS, HEK-293T) (PSI 1-6); higher = more stable;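 note: lentivirally expressed fusions sorted by FACS into six bins by GFP to DsRed ratio, PSI derived from sequencing read proportions per bin multiplied by bin number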
# conditionSummary: c terminus: a fixed tail appended
Please respond with just the number, no unit label.

Examples from the recorded data:
> print(dat)
   variantid              readoutkind  readoutvalue
1       F21W  protein stability index          3.22
2        G7I  protein stability index          4.17
3       V23Y  protein stability index          4.11
4        K6P  protein stability index          4.59
5       R14K  protein stability index          4.85
6       S20Y  protein stability index          3.98
7       Q19N  protein stability index          4.89
8       S18K  protein stability index          4.43

**Q:** Answer with the recorded protein stability index of `E10H` only.
**A:** 4.44

**Q:** Tell me protein stability index reported for `R12E`
**A:** 5.03

**Q:** Give me measured protein stability index, please, for this variant: `R17F`
**A:** 3.19

**Q:** Identify measured protein stability index corresponding to `A3F`
**A:** 4.28

**Q:** Note protein stability index for the variant shown: `R14Q`
**A:** 4.66

**Q:** Specify protein stability index for `A4V` and stop.
**A:** 3.99

**Q:** Item `G7D` : provide protein stability index
**A:** 4.75

**Q:** Provide protein stability index value for the following variant: `G9R`
**A:** 4.27

**Q:** Please give measured protein stability index of the following entry: `R17E`
**A:** 4.65

**Q:** Supply reported protein stability index belonging to this variant: `Q19H`
**A:** 4.81

**Q:** Indicate the recorded protein stability index value for this variant: `E1N`
**A:** 4.35

**Q:** State, in one line, measured protein stability index of `V23Q`
**A:** 4.94

**Q:** Report protein stability index, nothing else, for this variant: `G5I`
**A:** 3.91

**Q:** Fill in protein stability index for record `Q19D`
**A:** 4.61
